- System: MDA-MB-468 breast
- ASSAY_TEXT: NCI-60 one-dose screen, 48 h (100 = growth as untreated, 0 = no growth, -100 = all killed)
- TEST_CONTEXT: 10 µM unless noted
About 83,000 compounds went through this panel and 20% of them were active in at least one assay; those are over-represented in the sample as a whole.
Categorized via growth: LOW: < 40%; MEDIUM: ≥ 40% and < 90%; HIGH: ≥ 90%

COMPOUND	TARGET_OR_SYSTEM	ASSIGNED_LABEL
COC(=O)c1cc(O)c2c(c1C(=O)OC)C[C@H]1[C@@H]3CC=C4C[C@@H](O)CC[C@]4(C)[C@H]3CC[C@]21C	MDA-MB-468 breast	LOW
CCCCCCC(=O)Nc1ncc(Cc2ccc(C)cc2)s1	MDA-MB-468 breast	LOW
CC/C(=C(/c1ccc(Cl)cc1)c1ccc(OCCN2CCCCC2)cc1)c1ccc(Cl)cc1	MDA-MB-468 breast	MEDIUM
N#CC1=C(N2CCOCC2)NC2c3ccccc3Sc3ccccc3N2C1=N (stereo not given)	MDA-MB-468 breast	HIGH
Cc1c(C(=O)/C=C/c2ccc(Cl)cc2)nnn1-c1ccc2oc(=O)ccc2c1	MDA-MB-468 breast	MEDIUM
C=C1C(=O)O[C@H]2[C@H]1CC/C(Cn1cc(-c3ccccc3C(F)(F)F)nn1)=C\CC[C@@]1(C)O[C@@H]21	MDA-MB-468 breast	LOW
CCN(CCO)CCCOc1ccc2c(Nc3cc(CC(=O)Nc4cccc(F)c4)[nH]n3)ncnc2c1	MDA-MB-468 breast	LOW
Cc1[nH]c(=O)[nH]c(=O)c1Br	MDA-MB-468 breast	HIGH
Cc1ccc(/C=C(\C#N)n2nc3cccc(F)c3n2)cc1	MDA-MB-468 breast	MEDIUM
N=C1c2nc3n(c2C(=O)c2nc4n(c21)CCCC4)CCCC3	MDA-MB-468 breast	MEDIUM

----------
- System: MDA-MB-468 breast
- ASSAY_TEXT: NCI-60 one-dose screen, 48 h
- TEST_CONTEXT: 10 µM unless noted
This is part of a sample that, as a whole, favours compounds with a hit. Of some 83,000 tested, about 20% had one in any assay. Active and inactive are the calls of the source. Rule for the calls: active = growth percent below 10; inactive = the rest.
Classes used: t (active), f (inactive)

C#CCOc1cccc(Nc2ncnc3c(NC(=O)CCl)cccc23)c1 t
CC(C)CCSc1nc(N)nc2nc[nH]c12 f
Nc1ncc([N+](=O)[O-])cn1 f
O=C(/C=C/C=C/c1ccc2c(c1)OCO2)N/N=C\c1ccc(O)cc1O t
COc1ccc(/C(=N\NC(N)=S)c2ccc(Cl)cc2)cc1OC f
CC(C)(C)Nc1nc2c(OCCc3ccccc3)cccn2c1-c1ccc(O)cc1 f
CS(=O)(=O)Nc1cc(-c2ccc3ncnc(Nc4ccc(F)c(Cl)c4)c3c2)cnc1Cl t
Cc1ccc(N=Nc2c(N)nc(N)[nH]c2=O)cc1C f
CCCCCCCCCCCC(=O)NCCC[N+](C)(C)CC(=O)[O-] f
COc1ccc(C(=O)CSc2nc(-c3cc(OC)ccc3OC)cc(-c3ccc(OC)cc3)c2C#N)cc1 f
N#CSc1c[nH]c2cccc(/C=C/C(=O)/C=C(O)/C=C/c3cccc4[nH]cc(SC#N)c34)c12 t

----------
- System: MDA-MB-468 breast
- ASSAY_TEXT: NCI-60 one-dose screen, 48 h
- TEST_CONTEXT: 10 µM unless noted
About 83,000 compounds went through this panel and 20% of them were active in at least one assay; those are over-represented in the sample as a whole. Activity calls are given as the source filed them. The calls were made as follows: active = growth percent below 10; inactive = the rest.
Classes used: T for active, F for inactive

COMPOUND	TARGET_OR_SYSTEM	ASSIGNED_LABEL
COc1ccc(Cc2cc(-c3ccccc3C)n[nH]c2=O)cc1	MDA-MB-468 breast	F
c1cc[n+](Cc2ccnc3ccccc23)cc1	MDA-MB-468 breast	F
C[N+]1(CCCCC[N+]2(C)CCCC2)CCCC1	MDA-MB-468 breast	F
COc1ccc(NC(=O)/C=C/c2ccc(Cl)c(Cl)c2)cn1	MDA-MB-468 breast	F
N#C/C(=C\c1ccc(Cl)cc1Cl)C(N)=O	MDA-MB-468 breast	F
O=C1CSC(=O)N1Cc1cc2ccccc2nc1Cl	MDA-MB-468 breast	F
Nc1nc(Nc2ccccc2)c2ncn(Cc3ccc4c(c3)OCO4)c2n1	MDA-MB-468 breast	F
COc1cc(C2C=C(C)N=C3SC(C)=NN32)cc(OC)c1OC (stereo unspecified)	MDA-MB-468 breast	F
COc1ccc(C(=O)c2cc(C)c(OC)c(C)c2)c(OC)c1OC(=O)C(Cl)Cl	MDA-MB-468 breast	F
COc1ccc2cc(-c3nc4ccc(C)cn4c3NCc3ccco3)c(=O)[nH]c2c1	MDA-MB-468 breast	F
CC1=C([Se]CC(OC(=O)[C@@H](CO)NC(=O)OC(C)(C)C)C(=O)NC(C)(C)C)C(=O)c2ccccc2C1=O (stereo partly specified)	MDA-MB-468 breast	T
